# EXPERIMENTAL_PROTOCOL: chemical genetic growth profiling, strain panel (AID 1159580);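 further: tested at 20 µM; growth read once vehicle control cultures reached saturation at 30 °C; 1 = growth at the plate median or of vehicle wells; lower values mean less growth of the strain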
# PROTOCOL_CONDITIONS: S. cerevisiae deletion strains, growth OD, locus YLR221C, strain rsa3, stronger effect = lower value
Out of some 5,500 compounds screened, about 2,000 (36%) were called active. Roughly 18% stayed inconclusive and do not appear here. The list shows a part of the results.
# reported normalized growth; entries follow
In your answer, state the number alone without any accompanying words.

As a guide, the following entries are already answered.
{"columns": ["COMPOUND", "normalized growth"],
 "data": [
  ["COc1cc(C(=O)N2CCOCC2)cc(OC)c1OC", 0.968],
  ["COc1nc(NC(C)C)nc(NC(C)C)n1", 1.04],
  ["NCC(O)CC(=O)O (stereo unspecified)", 1.01],
  ["COC1CC(OC2CCC3(C)C(CCC4C3CCC3(C)C(C5=CC(=O)OC5)C(OC(C)=O)CC43O)C2)OC(C)C1O (stereo unspecified)", 1.03],
  ["C[C@H]1O[C@@H](O[C@H]2[C@@H](O)C[C@H](O[C@H]3[C@@H](O)C[C@H](O[C@H]4CC[C@]5(C)C6CC[C@]7(C)[C@@H](C8=CC(=O)OC8)CC[C@]7(O)C6CC[C@@H]5C4)O[C@@H]3C)O[C@@H]2C)C[C@H](O)[C@@H]1O (stereo partly specified)", 0.954]
]}

With those in mind, consider the next compound.
Endpoint output: normalized growth of "NC[C@H]1O[C@H](O[C@H]2[C@H](O)[C@@H](O[C@H]3O[C@H](CO)[C@@H](O)[C@H](N)[C@H]3O)[C@H](N)C[C@@H]2N)[C@H](N)[C@@H](O)[C@@H]1O" . Value?
0.997

----------
# EXPERIMENTAL_PROTOCOL: chemical genetic growth profiling, strain panel (AID 1159580);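 further: tested at 20 µM; growth read once vehicle control cultures reached saturation at 30 °C; 1 = growth at the plate median or of vehicle wells; lower values mean less growth of the strain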
# PROTOCOL_CONDITIONS: S. cerevisiae deletion strains, growth OD, locus YLL041C, strain sdh2, stronger effect = lower value
Hit rate of the full screen: of about 5,500 compounds, about 2,000 (36%) were called active. Inconclusive results (about 18%) are left out. Some of the results follow.
# reported normalized growth; entries follow
In your answer, state the number alone without any accompanying words.

As a guide, the following entries are already answered.
{"columns": ["COMPOUND", "EXPERIMENTAL_VALUE"],
 "data": [
  ["CCC(=O)OCC(=O)[C@@]1(OC(=O)CC)[C@@H](C)CC2C3CCC4=CC(=O)C=C[C@]4(C)C3(F)[C@@H](O)C[C@@]21C (some centres undefined)", 0.994],
  ["CCC(=O)O[C@]1(C(=O)CCl)[C@@H](C)CC2C3CCC4=CC(=O)C=C[C@]4(C)[C@@]3(F)[C@@H](O)C[C@@]21C (some centres undefined)", 1.01],
  ["COC1=CC(C)[C@@H]2C[C@H]3OC(=O)C[C@H]4C(C)=C(OC)C(=O)C([C@@]34C)[C@@]2(C)C1=O (some centres undefined)", 0.983]
]}

With those in mind, consider the next compound.
Endpoint output: normalized growth of "CNC[C@H](O)c1cccc(O)c1" . Value?
0.985

----------
# EXPERIMENTAL_PROTOCOL: chemical genetic growth profiling, strain panel (AID 1159580);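 further: tested at 20 µM; growth read once vehicle control cultures reached saturation at 30 °C; 1 = growth at the plate median or of vehicle wells; lower values mean less growth of the strain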
# PROTOCOL_CONDITIONS: S. cerevisiae deletion strains, growth OD, locus YPL051W, strain arl3, stronger effect = lower value
The whole screen tested about 5,500 compounds, of which about 2,000 (36%) were called active. Not shown: some 18% with an inconclusive outcome. Some of the results follow.
EXPERIMENTAL_ENDPOINT: normalized growth
In your answer, state the number alone without any accompanying words.

{"columns": ["COMPOUND", "normalized growth"],
 "data": [
  ["COc1c(O)cc2c(c1O)[C@H]1O[C@H](CO)[C@@H](O)[C@H](O)[C@@H]1OC2=O", 1.01],
  ["COc1ccccc1N1CCN(CCCNc2cc(=O)n(C)c(=O)n2C)CC1", 1.01],
  ["CCC(=O)OCC(=O)C1(OC(=O)CC)C(C)CC2C3CCC4=CC(=O)C=CC4(C)C3(Cl)C(O)CC21C (configuration not stated)", 0.986],
  ["CC1(C)[C@@H]2CC[C@@]1(C)C(=O)C2", 0.997],
  ["CC1(C)C(O)CC(=O)C2(C)C1CC(O)C1(C)C2CCC2(C)C(c3ccoc3)OC(=O)C3OC321 (configuration not stated)", 1.01]
]}

Endpoint output: normalized growth of CC1(C)Oc2ccc3ccc(=O)oc3c2CC1O (configuration not stated) . Value?
1.02

Endpoint output: normalized growth of C[C@H]1O[C@H](O[C@H]2[C@H](O)[C@@H](O)[C@@H](O[C@H]3[C@H](O)[C@@H](O)C(O)O[C@@H]3CO)O[C@@H]2CO)[C@H](O)[C@@H](O)[C@@H]1N[C@H]1C=C(CO)[C@@H](O)[C@H](O)[C@H]1O (some centres not stated) . Value?
1
